experimental.target: Sushi domains (SD1/2) protein of GABAB1a (GB1a)
Sequence (Q9Z0U4 29-158): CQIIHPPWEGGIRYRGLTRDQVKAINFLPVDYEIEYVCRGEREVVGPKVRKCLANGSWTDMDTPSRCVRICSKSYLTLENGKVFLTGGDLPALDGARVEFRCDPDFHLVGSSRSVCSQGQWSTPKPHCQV
experiment.notes: FP competition vs TAMRA AJAP-1probe
Starred links: 1 amine or outer side, 2 acyl side, 3 side chain; linkers in the order of their positions; H or OH if unused. Non-standard residues stand in square brackets, D forms with d. Oetyr = O-ethyl-L-tyrosine, CCOc1ccc(C[C@H](N[*:1])C(=O)[*:2])cc1; Sar = CNCC(=O)O
test.readout: Ki (nM)

INSERT INTO results (binder, result_value) VALUES
  ('Ac-EDDD[Oetyr]IDWYDSDDD-NH2 (SMILES CCOc1ccc(C[C@H](NC(=O)[C@H](CC(=O)O)NC(=O)[C@H](CC(=O)O)NC(=O)[C@H](CC(=O)O)NC(=O)[C@H](CCC(=O)O)NC(C)=O)C(=O)N[C@H](C(=O)N[C@@H](CC(=O)O)C(=O)N[C@@H](Cc2c[nH]c3ccccc23)C(=O)N[C@@H](Cc2ccc(O)cc2)C(=O)N[C@@H](CC(=O)O)C(=O)N[C@@H](CO)C(=O)N[C@@H](CC(=O)O)C(=O)N[C@@H](CC(=O)O)C(=O)N[C@@H](CC(=O)O)C(N)=O)[C@@H](C)CC)cc1) [peptide 32]', 5.3),
  ('Ac-EDDSDVWWY[Sar]TGDED-NH2 (SMILES CC(=O)N[C@@H](CCC(=O)O)C(=O)N[C@@H](CC(=O)O)C(=O)N[C@@H](CC(=O)O)C(=O)N[C@@H](CO)C(=O)N[C@@H](CC(=O)O)C(=O)N[C@H](C(=O)N[C@@H](Cc1c[nH]c2ccccc12)C(=O)N[C@@H](Cc1c[nH]c2ccccc12)C(=O)N[C@@H](Cc1ccc(O)cc1)C(=O)N(C)CC(=O)N[C@H](C(=O)NCC(=O)N[C@@H](CC(=O)O)C(=O)N[C@@H](CCC(=O)O)C(=O)N[C@@H](CC(=O)O)C(N)=O)[C@@H](C)O)C(C)C) […(N-Me-G)TGDED]', 142);

(a) Ac-PWFIVWGPTVSRED-NH2
(b) Ac-ETEFIAWGPTGHED-NH2
Ask: Name the one with the greater Ki value, either a or b as given. Reply briefly: the label of your chosen item.
Reply: a
